Biological target: clathrin heavy chain NTD (amino acids 1–364) – amphiphysin 1 B/C domain protein–protein interaction (NTD‐PPI) (Homo sapiens)
Construct: GST‐tagged clathrin heavy chain NTD (amino acids 1–364); made in house
Test: ELISA-based clathrin inhibitor binding assay (NTD-PPI)
Settings: Table 2, library 2; ELISA, average of duplicate measurements (n=2); read-out: NTD‐PPI IC50
PROPERTY: IC50
The reply should consist of the numeric value with the unit placed after it.

For each of the compounds below, note its IC50.
1. COc1cc(/C=C2\SC(NS(=O)(=O)c3cccc4ccccc34)=NC2=O)cc(OC)c1OC
2. O=C1N=C(NS(=O)(=O)c2cccc3ccccc23)S/C1=C\c1cccc(O)c1O
3. O=C1N=C(NS(=O)(=O)c2cccc3ccccc23)S/C1=C\c1ccc(Cl)cc1Cl

**Result**
1. 14.1 µM
2. 3.9 µM
3. 1.5 µM

Please look at the items below and tell me IC50 for each one, in order.
1. COc1ccc(/C=C2\SC(NS(=O)(=O)c3cccc4ccccc34)=NC2=O)c(OC)c1
2. COc1ccc(/C=C2\SC(NS(=O)(=O)c3cccc4ccccc34)=NC2=O)cc1OC
3. O=C1N=C(NS(=O)(=O)c2cccc3ccccc23)S/C1=C\c1cccc(Cl)c1Cl
4. O=C1N=C(NS(=O)(=O)c2cccc3ccccc23)S/C1=C\c1ccc(Cl)c(Cl)c1

**Result**
1 µM
2.2 µM
26.1 µM
4.1 µM

----------
I'd be grateful if you could share measured pIC50 for these entries.
Biological target: clathrin heavy chain NTD (amino acids 1–364) – amphiphysin 1 B/C domain protein–protein interaction (NTD‐PPI) (Homo sapiens, UniProt Q00610)
Construct: GST‐tagged clathrin heavy chain NTD (amino acids 1–364); made in house
Sequence (Q00610 1-364): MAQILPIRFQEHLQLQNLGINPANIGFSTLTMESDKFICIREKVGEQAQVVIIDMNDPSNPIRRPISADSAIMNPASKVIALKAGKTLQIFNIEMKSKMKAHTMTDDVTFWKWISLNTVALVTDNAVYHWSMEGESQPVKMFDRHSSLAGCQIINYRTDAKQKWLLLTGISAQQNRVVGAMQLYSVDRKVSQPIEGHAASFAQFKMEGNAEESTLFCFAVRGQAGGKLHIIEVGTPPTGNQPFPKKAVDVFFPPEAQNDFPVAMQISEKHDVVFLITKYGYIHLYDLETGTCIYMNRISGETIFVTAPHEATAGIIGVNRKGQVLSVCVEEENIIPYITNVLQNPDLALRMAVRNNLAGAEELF
Experiment: ELISA-based clathrin inhibitor binding assay (NTD-PPI)
Conditions: Table 4, library 4; ELISA, average of duplicate measurements (n = 2); read-out: NTD‐PPI IC50
One number for each entry, as −log10 of the molar value.

Observe how each entry below is paired with its result.
COMPOUND	pIC50
Cc1ccc2[nH]cc(/C=C3\SC(NS(=O)(=O)c4cccc5ccccc45)=NC3=O)c2c1	5.45
Cc1[nH]c2ccccc2c1/C=C1\SC(NS(=O)(=O)c2cccc3ccccc23)=NC1=O	5.63

Lab note: next compound to report on.
// `O=C1N=C(NS(=O)(=O)c2cccc3ccccc23)S/C1=C\c1ccc2c(c1)OCCO2` : pIC50 value = 5.92

----------
Molecular target: full length human Dynamin I (Homo sapiens)
Construct: full length human Dynamin I expressed in Sf21 insect cells; made in house; host or cells: Sf21 insect cells
Sequence (Q05193 1-864): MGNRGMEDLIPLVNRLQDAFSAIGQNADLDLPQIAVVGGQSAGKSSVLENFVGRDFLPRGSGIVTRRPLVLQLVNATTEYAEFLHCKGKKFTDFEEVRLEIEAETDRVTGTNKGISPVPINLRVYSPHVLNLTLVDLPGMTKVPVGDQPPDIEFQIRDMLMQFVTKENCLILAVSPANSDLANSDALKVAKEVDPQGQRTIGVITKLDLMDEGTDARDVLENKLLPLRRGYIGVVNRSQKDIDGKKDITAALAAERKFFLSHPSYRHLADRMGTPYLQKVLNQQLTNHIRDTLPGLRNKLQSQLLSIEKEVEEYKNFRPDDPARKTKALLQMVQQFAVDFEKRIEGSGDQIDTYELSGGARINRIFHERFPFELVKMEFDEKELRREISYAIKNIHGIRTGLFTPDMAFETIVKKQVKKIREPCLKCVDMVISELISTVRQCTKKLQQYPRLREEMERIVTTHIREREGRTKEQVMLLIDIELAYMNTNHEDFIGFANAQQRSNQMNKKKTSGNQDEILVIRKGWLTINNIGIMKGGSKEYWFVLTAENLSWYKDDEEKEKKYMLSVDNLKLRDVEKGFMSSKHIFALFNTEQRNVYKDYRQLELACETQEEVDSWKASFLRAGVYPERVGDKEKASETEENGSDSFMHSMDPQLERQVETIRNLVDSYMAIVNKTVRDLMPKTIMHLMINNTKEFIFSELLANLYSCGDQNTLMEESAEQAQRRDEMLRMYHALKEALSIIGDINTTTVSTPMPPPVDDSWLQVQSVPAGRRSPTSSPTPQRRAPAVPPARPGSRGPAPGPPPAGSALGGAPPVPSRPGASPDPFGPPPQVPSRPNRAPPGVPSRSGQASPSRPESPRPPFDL
Assay: Dynamin GTPase activity, Malachite Green phosphate detection assay
Assay type: biochemical
Settings: Table 5; dynamin GTPase; n = 1 or n = 2 as footnoted; NA = not active at 100 μM; read-out: Dynamin 1 IC50
PROPERTY: IC50

COMPOUND	SYSTEM UNDER TEST	PROPERTY	EXPERIMENTAL VALUE
O=C1N=C(NS(=O)(=O)c2cccc3ccccc23)S/C1=C\c1cccc([N+](=O)[O-])c1	full length human Dynamin I (Homo sapiens)	IC50	> 100 µM
O=C1N=C(NS(=O)(=O)c2cccc3ccccc23)S/C1=C\c1cccc(O)c1	full length human Dynamin I (Homo sapiens)	IC50	> 100 µM
O=C1N=C(NS(=O)(=O)c2cccc3ccccc23)S/C1=C\c1ccc(O)cc1	full length human Dynamin I (Homo sapiens)	IC50	> 100 µM

Entry under test: `O=C1COc2ccc(/C=C3\SC(NS(=O)(=O)c4cccc5ccccc45)=NC3=O)cc2N1` . Its IC50 was ~54.1 µM

----------
Target: full length human Dynamin I (Homo sapiens, UniProt Q05193)
Construct: full length human Dynamin I expressed in Sf21 insect cells; made in house; host or cells: Sf21 insect cells
Experiment: Dynamin GTPase activity, Malachite Green phosphate detection assay
Assay type: biochemical
Conditions: Table 2, library 2; n = 3, triplicate; '–' = not active at 100 μM; read-out: Dyn 1 IC50
Task for the reader: assign each of the following compounds its reported IC50.

COMPOUND	PROPERTY	EXPERIMENTAL VALUE
O=C1N=C(NS(=O)(=O)c2cccc3ccccc23)S/C1=C\c1ccc(Cl)c(Cl)c1 [compound 36]	IC50	95.1 µM
O=C1N=C(NS(=O)(=O)c2cccc3ccccc23)S/C1=C\c1cc(O)ccc1O [compound 26]	IC50	70 µM
O=C1N=C(NS(=O)(=O)c2cccc3ccccc23)S/C1=C\c1ccc(F)c(F)c1 [compound 38]	IC50	> 100 µM
COc1ccc(/C=C2\SC(NS(=O)(=O)c3cccc4ccccc34)=NC2=O)c(OC)c1 [compound 30]	IC50	> 100 µM
COc1cc(/C=C2\SC(NS(=O)(=O)c3cccc4ccccc34)=NC2=O)cc(OC)c1 [compound 32]	IC50	> 100 µM
COc1cc(/C=C2\SC(NS(=O)(=O)c3cccc4ccccc34)=NC2=O)cc(OC)c1OC [compound 33]	IC50	> 100 µM

Record IC50 for all entries; do not skip any.
1. COc1cccc(/C=C2\SC(NS(=O)(=O)c3cccc4ccccc34)=NC2=O)c1OC [compound 29]
2. COc1ccc(/C=C2\SC(NS(=O)(=O)c3cccc4ccccc34)=NC2=O)cc1OC [compound 31]

**Result**
1. > 100 µM
2. 91 µM

----------
Target: full length human Dynamin I (Homo sapiens)
Construct: full length human Dynamin I expressed in Sf21 insect cells; made in house; host or cells: Sf21 insect cells
Assay: Dynamin GTPase activity, Malachite Green phosphate detection assay
Format: biochemical
Settings: Table 1, library 1; n = 1 unless noted (19: n = 2); '–' = not active at 150 μM; read-out: Dyn 1 IC50
pIC50: −log10 of the molar value.
Give measured pIC50 for each item. Keep answers brief.

Known results for molecules:
COMPOUND	pIC50
CC(C)(C)c1ccc(/C=C2\SC(NS(=O)(=O)c3cccc4ccccc34)=NC2=O)cc1	< 3.82
O=C1N=C(NS(=O)(=O)c2cccc3ccccc23)SC1=Cc1ccccc1-c1ccccc1	< 3.82
O=C1N=C(NS(=O)(=O)c2cccc3ccccc23)S/C1=C\c1ccccc1[N+](=O)[O-]	4.37
N#Cc1cccc(/C=C2\SC(NS(=O)(=O)c3cccc4ccccc34)=NC2=O)c1	< 3.82
CCCCc1ccc(/C=C2\SC(NS(=O)(=O)c3cccc4ccccc34)=NC2=O)cc1	~3.99
O=C1N=C(NS(=O)(=O)c2cccc3ccccc23)S/C1=C\c1cccc([N+](=O)[O-])c1	< 3.82
O=C1N=C(NS(=O)(=O)c2cccc3ccccc23)SC1=Cc1cccc(-c2ccccc2)c1	< 3.82
CC(C)c1ccc(/C=C2\SC(NS(=O)(=O)c3cccc4ccccc34)=NC2=O)cc1	< 3.82

Then there is this molecule:
GET /value?item= `O=C1N=C(NS(=O)(=O)c2cccc3ccccc23)S/C1=C\c1ccccc1O` &field=pIC50 returns < 3.82
